Study Target: PPARα LBD (Homo sapiens, UniProt Q07869)
Sequence (Q07869 239-466 limits assumed): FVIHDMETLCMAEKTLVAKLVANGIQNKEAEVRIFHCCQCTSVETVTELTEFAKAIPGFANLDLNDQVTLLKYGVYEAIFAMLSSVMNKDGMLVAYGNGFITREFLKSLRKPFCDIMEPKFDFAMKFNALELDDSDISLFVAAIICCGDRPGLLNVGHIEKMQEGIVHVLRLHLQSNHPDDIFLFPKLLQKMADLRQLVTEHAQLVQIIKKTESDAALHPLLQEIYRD
Measurement Protocol: Lanthascreen TR-FRET PPAR-alpha coactivator assay
Result Type: pEC50
By convention, pEC50 is the negative base-10 log of a molar concentration.

Compound	Study Target	pEC50
CCCCCCCCC=CCCCCCCCC(N)=O [OCT, 9-octadecenamide]	PPARα LBD (Homo sapiens, UniProt Q07869)	5.32

We now examine a further compound.
Form: Entry = CCCCCCCCCCCCCCCC(N)=O [HEX, hexadecanamide] | System = PPARα LBD (Homo sapiens, UniProt Q07869) | pEC50 = ____
5.28
